# target-under-test: UniProtKB P52333
# Sequence (P52333 1-1124): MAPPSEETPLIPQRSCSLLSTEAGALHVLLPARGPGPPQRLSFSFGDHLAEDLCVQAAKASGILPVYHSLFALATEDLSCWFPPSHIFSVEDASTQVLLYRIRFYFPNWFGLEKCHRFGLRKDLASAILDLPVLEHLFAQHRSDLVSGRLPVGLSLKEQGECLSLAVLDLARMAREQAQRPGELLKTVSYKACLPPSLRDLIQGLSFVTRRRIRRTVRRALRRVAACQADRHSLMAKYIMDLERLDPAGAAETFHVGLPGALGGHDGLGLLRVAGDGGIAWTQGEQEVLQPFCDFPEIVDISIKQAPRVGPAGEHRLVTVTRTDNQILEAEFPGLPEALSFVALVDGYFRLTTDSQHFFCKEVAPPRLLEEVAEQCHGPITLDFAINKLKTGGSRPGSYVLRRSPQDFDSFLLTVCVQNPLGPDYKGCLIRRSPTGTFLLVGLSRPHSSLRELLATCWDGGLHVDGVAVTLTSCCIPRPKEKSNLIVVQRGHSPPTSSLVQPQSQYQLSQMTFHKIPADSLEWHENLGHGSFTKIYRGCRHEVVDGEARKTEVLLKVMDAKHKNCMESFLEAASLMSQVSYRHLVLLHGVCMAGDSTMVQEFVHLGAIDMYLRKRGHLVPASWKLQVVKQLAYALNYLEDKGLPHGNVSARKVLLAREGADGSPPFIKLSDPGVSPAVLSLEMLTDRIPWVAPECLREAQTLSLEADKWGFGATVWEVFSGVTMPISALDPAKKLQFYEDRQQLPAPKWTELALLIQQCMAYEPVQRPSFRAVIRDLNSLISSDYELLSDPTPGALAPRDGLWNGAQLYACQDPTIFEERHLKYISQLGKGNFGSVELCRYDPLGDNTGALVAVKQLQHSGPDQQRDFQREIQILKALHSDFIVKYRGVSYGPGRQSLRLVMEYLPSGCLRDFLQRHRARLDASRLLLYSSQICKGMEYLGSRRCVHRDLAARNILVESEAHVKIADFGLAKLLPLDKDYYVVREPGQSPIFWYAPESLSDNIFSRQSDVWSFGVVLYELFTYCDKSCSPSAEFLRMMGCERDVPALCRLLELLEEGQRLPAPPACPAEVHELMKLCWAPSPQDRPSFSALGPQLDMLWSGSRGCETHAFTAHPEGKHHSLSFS
# assay-notes: JAK assay (KINASE-GLO luminescent kinase assay), JAK3
# Assay type: biochemical
# assay-context: 10 nM JAK enzyme, 800 nM Abl peptide, room temperature 75 min
# IC50 per record follows

Some solved entries appear below for comparison.
compound: Cc1cnc(Nc2ccc3c(c2)C(=O)N(C)C3=O)nc1-c1cnn(CC2(Cl)CC2)c1
IC50: < 100 nM
--
compound: N#CCCn1cc(-c2nc(Nc3ccc(N4CCOCC4)c(F)c3)ncc2Cl)cn1
IC50: < 10 nM
--
compound: N#CC1(Cn2cc(-c3nc(Nc4ccns4)ncc3Cl)cn2)CCC1 [ClC1═C(N═C(NC2═CC═NS2)N═C1)C3═C[N]]
IC50: < 100 nM

Then this compound:
**Q:** Please look at this compound and report its IC50: CS(=O)(=O)N(c1ncc(Cl)c(-c2cnn(CCC#N)c2)n1)S(C)(=O)=O [C[S](═O)(═O)N(C1═NC(═C]
**A:** > 50000 nM

----------
# target-under-test: TYK2 (Homo sapiens)
# Sequence (P29597 whole entry): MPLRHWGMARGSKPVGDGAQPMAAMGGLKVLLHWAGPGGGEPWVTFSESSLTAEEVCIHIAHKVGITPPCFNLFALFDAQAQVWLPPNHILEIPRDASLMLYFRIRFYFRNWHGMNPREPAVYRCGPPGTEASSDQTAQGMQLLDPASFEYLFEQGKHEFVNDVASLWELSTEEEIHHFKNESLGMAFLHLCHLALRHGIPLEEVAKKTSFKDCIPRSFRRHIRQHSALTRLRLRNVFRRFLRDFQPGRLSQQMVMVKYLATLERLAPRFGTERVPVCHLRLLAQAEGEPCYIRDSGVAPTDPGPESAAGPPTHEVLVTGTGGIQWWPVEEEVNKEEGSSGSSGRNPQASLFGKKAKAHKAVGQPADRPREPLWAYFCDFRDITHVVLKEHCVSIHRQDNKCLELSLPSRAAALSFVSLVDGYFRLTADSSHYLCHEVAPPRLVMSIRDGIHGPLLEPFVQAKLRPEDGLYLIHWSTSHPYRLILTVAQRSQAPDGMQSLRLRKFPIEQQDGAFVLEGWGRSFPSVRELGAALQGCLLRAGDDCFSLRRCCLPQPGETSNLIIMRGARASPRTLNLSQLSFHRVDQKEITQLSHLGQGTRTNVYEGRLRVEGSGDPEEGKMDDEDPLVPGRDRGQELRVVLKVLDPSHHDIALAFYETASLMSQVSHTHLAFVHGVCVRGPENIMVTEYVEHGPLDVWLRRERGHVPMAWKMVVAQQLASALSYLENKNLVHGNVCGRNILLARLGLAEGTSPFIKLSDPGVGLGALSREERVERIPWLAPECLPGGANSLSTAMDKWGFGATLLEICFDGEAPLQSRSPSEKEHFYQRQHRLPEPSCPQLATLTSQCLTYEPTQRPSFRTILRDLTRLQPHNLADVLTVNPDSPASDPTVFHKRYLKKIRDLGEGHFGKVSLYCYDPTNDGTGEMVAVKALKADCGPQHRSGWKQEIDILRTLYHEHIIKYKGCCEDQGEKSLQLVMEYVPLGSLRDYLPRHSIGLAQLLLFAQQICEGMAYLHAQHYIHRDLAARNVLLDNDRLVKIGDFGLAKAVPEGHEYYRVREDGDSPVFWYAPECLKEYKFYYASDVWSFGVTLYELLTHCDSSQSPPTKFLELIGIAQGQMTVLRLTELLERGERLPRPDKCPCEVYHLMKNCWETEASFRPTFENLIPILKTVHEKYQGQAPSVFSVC
# assay-notes: JAK assay (KINASE-GLO luminescent kinase assay), TYK2
# Type: biochemical
# assay-context: 10 nM JAK enzyme, 800 nM Abl peptide, room temperature 75 min
assay-metric: IC50

**Q:** Read off the recorded IC50 for Cc1cnc(Nc2ccc(CNC(=O)CCN(C)C)cc2)nc1-c1cnn(CC2(CF)CC2)c1
**A:** < 100 nM

**Q:** Assign IC50 to the following record: CNC(=O)c1cccc(Nc2ncc(Cl)c(-c3cnn(CC4(NC)CC4)c3)n2)c1
**A:** < 1000 nM

**Q:** Quick one: give measured IC50 for Cc1cnc(Nc2cc(COC(=O)CCN(C)C)ns2)nc1-c1cnn(CC2(CF)CC2)c1
**A:** < 10 nM

**Q:** Determine its reported IC50: Cc1cnc(Nc2cc(CN3CCN(C)CC3)ns2)nc1-c1cnn(CC2(CF)CC2)c1
**A:** < 100 nM

----------
IC50 values by entry
# target-under-test: UniProt:P29597
# assay-notes: JAK assay (KINASE-GLO luminescent kinase assay), TYK2
# Format: biochemical
# assay-context: 10 nM JAK enzyme, 800 nM Abl peptide, room temperature 75 min

Example results:
compound: CCS(=O)(=O)N1CC(CO)(Cn2cc(-c3nc(Nc4cc(C)ns4)ncc3Cl)cn2)C1 [CC[S](═O)(═O)N1CC(CO)]
target-under-test: UniProt:P29597
experimental-result: < 100000 nM

compound: NCc1cccc(Nc2ncc(Cl)c(-c3cnn(CC4(CF)CC4)c3)n2)c1 [NCC1═CC═CC(═C1)NC2═NC(═C]
target-under-test: UniProt:P29597
experimental-result: < 100 nM

compound: COC(=O)c1cccc(Nc2ncc(Cl)c(-c3cnn(CCC#N)c3)n2)c1 [COC(═O)C1═CC═CC(═C1)NC2═NC]
target-under-test: UniProt:P29597
experimental-result: < 100 nM

compound: CC(C)(C)OC(=O)N1CC(CF)(Cn2cc(-c3nc(Nc4ccc(C(N)=O)cc4)ncc3Cl)cn2)C1 [CC(C)(C)OC(═O)N1CC(CF)(C1)C[N]2C═C]
target-under-test: UniProt:P29597
experimental-result: < 100 nM

compound: N#CCCn1cc(-c2nc(Nc3ccc(CCO)cc3)ncc2Cl)cn1 [OCCC1═CC═C(NC2═NC(═C]
target-under-test: UniProt:P29597
experimental-result: < 10 nM

compound: COc1ccc(Nc2ncc(C)c(-c3cnn(CC4(CF)CC4)c3)n2)cn1 [COC1═CC═C(NC2═NC(═C]
target-under-test: UniProt:P29597
experimental-result: < 100 nM

compound: CS(=O)(=O)N(c1ncc(Cl)c(-c2cnn(CCC#N)c2)n1)S(C)(=O)=O [C[S](═O)(═O)N(C1═NC(═C]
target-under-test: UniProt:P29597
experimental-result: > 50000 nM

compound: Cc1cnc(N2CCCCC2)nc1-c1cnn(CCC#N)c1 [CC1═C(N═C(N═C1)N2CCCCC2)C3═C[N]]
target-under-test: UniProt:P29597
experimental-result: > 50000 nM

Now examine the next entry.
**Q:** Enter recorded IC50 with UniProt:P29597 for Cn1ccc(Nc2ncc(Cl)c(-c3cnn(CCC#N)c3)n2)n1 [C[N]1C═CC(═N1)NC2═NC(═C] here.
**A:** < 1000 nM

----------
# target-under-test: JAK3 (Homo sapiens)
# Sequence (P52333 1-1124): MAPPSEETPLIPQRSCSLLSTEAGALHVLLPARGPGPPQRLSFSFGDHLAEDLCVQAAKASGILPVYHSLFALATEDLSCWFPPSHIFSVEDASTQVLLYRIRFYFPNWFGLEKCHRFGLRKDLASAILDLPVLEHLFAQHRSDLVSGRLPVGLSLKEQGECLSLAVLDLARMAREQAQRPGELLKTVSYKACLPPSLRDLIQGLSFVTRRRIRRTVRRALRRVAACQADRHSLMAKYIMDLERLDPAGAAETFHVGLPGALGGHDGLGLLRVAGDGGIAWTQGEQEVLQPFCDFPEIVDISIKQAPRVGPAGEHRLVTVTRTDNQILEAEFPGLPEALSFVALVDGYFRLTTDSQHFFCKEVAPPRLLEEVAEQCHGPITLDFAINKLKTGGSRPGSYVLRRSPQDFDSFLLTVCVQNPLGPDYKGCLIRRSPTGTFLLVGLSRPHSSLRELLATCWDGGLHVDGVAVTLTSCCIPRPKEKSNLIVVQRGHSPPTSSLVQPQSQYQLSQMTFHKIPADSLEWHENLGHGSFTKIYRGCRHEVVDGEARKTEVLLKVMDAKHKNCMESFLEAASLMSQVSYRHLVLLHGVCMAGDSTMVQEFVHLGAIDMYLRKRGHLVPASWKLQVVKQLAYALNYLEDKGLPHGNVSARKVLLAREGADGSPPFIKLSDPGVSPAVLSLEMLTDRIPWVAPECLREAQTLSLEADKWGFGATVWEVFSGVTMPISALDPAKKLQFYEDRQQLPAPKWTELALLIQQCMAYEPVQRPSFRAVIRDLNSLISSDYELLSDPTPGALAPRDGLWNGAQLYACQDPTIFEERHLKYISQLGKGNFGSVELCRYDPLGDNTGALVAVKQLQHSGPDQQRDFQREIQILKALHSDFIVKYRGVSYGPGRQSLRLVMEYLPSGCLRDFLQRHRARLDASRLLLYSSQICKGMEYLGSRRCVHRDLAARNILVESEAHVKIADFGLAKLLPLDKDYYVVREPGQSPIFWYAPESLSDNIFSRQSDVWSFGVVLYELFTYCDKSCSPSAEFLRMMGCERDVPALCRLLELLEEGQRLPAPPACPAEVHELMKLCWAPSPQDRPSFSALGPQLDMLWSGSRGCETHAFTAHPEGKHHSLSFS
# assay-notes: JAK assay (KINASE-GLO luminescent kinase assay), JAK3
# Type: biochemical
# assay-context: 10 nM JAK enzyme, 800 nM Abl peptide, room temperature 75 min
Each record here notes measured IC50.

Consider the worked cases shown below.
molecule: CCc1cnc(Nc2cc(C)ns2)nc1-c1cnn(CC2(Cl)CC2)c1
target-under-test: JAK3 (Homo sapiens)
IC50: < 10 nM

molecule: Cc1cnc(Nc2ccc(CNC(=O)CCN(C)C)cc2)nc1-c1cnn(CC2(CF)CC2)c1
target-under-test: JAK3 (Homo sapiens)
IC50: < 100 nM

**Q:** Consider the molecule Cc1cnc(Nc2ccc3c(c2)CN(C)C3)nc1-c1cnn(CC2(CF)CC2)c1 . State its measured IC50.
**A:** < 10 nM

**Q:** Return value of IC50 for input COc1cnc(Nc2cc(COC(=O)c3ccccc3)ns2)nc1-c1cnn(CC2(CF)CC2)c1 , no commentary.
**A:** < 100 nM

**Q:** Give a short answer stating reported IC50 for Cc1cnc(NC2CCOCC2)nc1-c1cnn(CCC#N)c1 [CC1═C(N═C(NC2CCOCC2)N═C1)C3═C[N]] .
**A:** > 50000 nM

**Q:** Look up and state reported IC50 for Cc1cnc(Nc2cccc3c2CN(C)C3)nc1-c1cnn(CC2(Cl)CC2)c1
**A:** < 100000 nM

**Q:** Give IC50 for Cc1cnc(Nc2ccc(C3CN(C(=O)OC(C)(C)C)C3)cc2)nc1-c1cnn(CCC#N)c1
**A:** < 100 nM

meta.source: patent US20250236611A1
